Some compounds, each annotated with its measured mortality.
Test system: Coptotermes formosanus
experimental-protocol: Termiticidal activity against Coptotermes formosanus placed on 0.05 % wt/wt compound treated filter paper assessed as termite mortality measured 6 days post compound exposure
Assay type: functional
quantity-measured: mortality (%)

CC1=CC(=O)C(C(C)C)=CC1=O	0
COC1=C(OC)C(=O)C(C)=C(C)C1=O [Aurantiogliocladin]	0
CC1=C(C)C(=O)C(Cl)=C(Cl)C1=O	0
CCCCCC1=CC(=O)C=C(OC)C1=O	3.3
COC1=C(OC)C(=O)C(CC=C(C)C)=C(C)C1=O	0

----------
Some molecules, each annotated with its measured mortality.
Test system: Coptotermes formosanus
experimental-protocol: Termiticidal activity against Coptotermes formosanus placed on 0.001 % wt/wt compound treated filter paper assessed as termite mortality measured 13 days post compound exposure
Assay type: functional
quantity-measured: mortality (%)

COC1=C(OC)C(=O)C(CC=C(C)C)=C(C)C1=O [Coenzyme Q1]	3.3
COC1=C(OC)C(=O)C(C)=C(C)C1=O [Aurantiogliocladin]	0
CC1=CC(=O)C(C(C)C)=CC1=O [THYMOQUINONE]	1.7
CC1=C(C)C(=O)C(Cl)=C(Cl)C1=O	26.3
CCCCCC1=CC(=O)C=C(OC)C1=O [Primin]	0
